System: KM12 colon
Experiment summary: NCI tumour cell line growth inhibition, 48 h; in the data active = GI50 below about 0.43 µM; inactive = the rest
Respond using exactly one of the listed classes: active, inactive

Reference set (6 entries):
COC(=O)c1cc(-c2ccc(OC)cc2)[nH]c1N/N=C/c1c(Cl)cccc1Cl    active
CC12CC=CCC1CCC1C2CCC2(C)C(c3ccc(=O)oc3)CCC12O (configuration not stated)    active
CCCCN(CCCC)CCc1c(C)cc(C)c(CCN(CCCC)CCCC)c1O    inactive
N=C(N)c1ccc(-c2ccc(-c3cc(Cl)cc(Cl)c3)o2)o1    inactive
COc1ccc(/C=C\c2cc(OC)c(OC)c(OC)c2)c(NS(=O)(=O)c2ccc(Cl)cc2)c1O    active
COc1cc2c(c(OC)c1OC)-c1ccc(O)c(=O)cc1[C@@H](NC(C)=O)CC2    inactive

Alright, here's another molecule for you.
Query :: What call does the record list for `CCCCN(CC)c1ncnc2ccc(Br)cc12` ?
Result :: inactive

====

Test system: A498 renal
Experiment summary: NCI tumour cell line growth inhibition, 48 h; in the data active means GI50 below about 0.43 µM; inactive means the rest
One label from this list, please: active, inactive

// below: answered compounds
COC(=O)[C@H]1[C@H]2C[C@@H]3c4[nH]c5cc(OC)ccc5c4CCN3C[C@H]2C[C@@H](OC(=O)/C=C/c2cc(OC)c(OC)c(OC)c2)[C@@H]1OC    inactive
COc1ccc(NC(=O)n2nc(/C=C\c3ccc(O)c(OC)c3)cc2/C=C\c2ccc(O)c(OC)c2)cc1    inactive
COc1nc(C)cc2c(=O)n(-c3ccccc3)n(CC(O)CN3CCN(c4ccc(Cl)cc4)CC3)c(=O)c12 (stereo unspecified)    inactive
CC(=O)c1cc(-c2ccccc2N)n(-c2ccc3c(c2)OCO3)c1C    active
CSc1nsc(S/C=C\C(=O)c2ccc(C)cc2)n1    active

Query :: Dear all, I need the recorded test outcome for `CCCCCCNC(=O)Oc1ccc(/C(=C(/C)Cc2ccc(OC)cc2)c2ccc(OCCN(C)C)cc2)cc1` , thank you.
Result :: inactive

====

Each entry below carries its recorded TGI.
System: RXF 393 renal
Experiment summary: NCI tumour cell line growth inhibition, 48 h

CCC1(OC(=O)CN)C(=O)OCc2c1cc1n(c2=O)Cc2cc3cc4c(cc3nc2-1)OCO4 (stereo unspecified)    0.119 µM
CN(C)CCNC(=O)c1cc(NC(=O)c2cc(NC(=O)CC/C=C3/[C@@H]4CC[C@H]3N=N4)cn2C)cn1C    > 100 µM
Cc1cccc(N=C2NC(=O)C(CC(=O)Nc3ccc(C)cc3C)S2)c1 (stereo unspecified)    > 100 µM

Query :: Form field: reported TGI of `COC(=O)[C@]1(C)CCC[C@@]2(C)[C@@H]3C[C@@H]4[C@H]5C[C@@]3(CC[C@@H]21)C[C@@]45C`
Result :: 38.2 µM

Query :: Please report the recorded TGI for CS(=O)(=O)[O-].CS(=O)(=O)[O-].NC1CCCCC1N.[Pt+4] (stereo unspecified) .
Result :: > 100 µM

====

Test system: ACHN renal
Experiment summary: NCI tumour cell line growth inhibition, 48 h
Let's look at some molecules and their measured TGI.

In the examples that follow, each entry is paired with its recorded TGI.
NC(=S)NNC(=S)NC(=O)c1ccco1    > 10 µM
CC(=O)c1cc(-c2ccccc2N)n(-c2ccc3c(c2)OCO3)c1C    > 100 µM
COc1cc2c(c(OC)c1)C(=O)O[C@H](C)CCCC/C=C/C2    > 30.6 µM

Query :: What measured TGI goes with `CNC(=O)N(CCC#N)CCCN(C(=O)N(C)C)c1ccccc1` ?
Result :: > 100 µM
